tested on: AKT protein phosphorylated on serine 473 (P-AKT-S473) in PC3 human prostate carcinoma cells; test: pAKT expression in PC3 cells measured by MSD Multi-spot Biomarker Detection (Test B); assay type: cell-based; conditions: PC-3, inhibition of AKT Ser473 phosphorylation, 1 to 2 h incubation, MSD sandwich immunoassay, absolute IC50, mean of two experiments
quantityKind: pIC50
In simple prose, pIC50 is minus the logarithm base ten of a concentration in moles per litre.

Use these answered entries as a reference point.
O=c1cc(N2CCOCC2)nc(Cc2nc3ccc(F)cc3o2)[nH]1    7.31
O=c1cc(N2CCOCC2)nc(Cc2nc3c(F)c(F)ccc3[nH]2)[nH]1    6.23
Cc1ccc2nc(Cc3nc(N4CCOCC4)cc(=O)[nH]3)[nH]c2c1    6.85
Cn1c(Cc2nc(N3CCOCC3)cc(=O)[nH]2)nc2cc(F)ccc21    7.80
O=c1cc(N2CCOCC2)nc(Cc2nc3cc(F)ccc3o2)[nH]1    7.59
CC(c1ccccc1)n1c(Cc2nc(N3CCOCC3)cc(=O)[nH]2)nc2cc(Cl)ccc21 (stereo not drawn)    6.69
Cn1c(Cc2nc(N3CCOCC3)cc(=O)[nH]2)nc2cc(F)c(F)c(F)c21    7.00
O=c1cc(N2CCOCC2)nc(Cc2nc3c(Br)cc(F)cc3[nH]2)[nH]1    6.94

Now for a further molecule.
Query block: Dear colleague, I am looking for the recorded pIC50 of the following molecule: O=c1cc(N2CCOCC2)nc(Cc2nc3cc(F)c(F)c(F)c3[nH]2)[nH]1
Result block: 6.68

---

system: AKT protein phosphorylated on serine 473 (P-AKT-S473) in PC3 human prostate carcinoma cells; test: pAKT expression in PC3 cells measured by MSD Multi-spot Biomarker Detection (Test B); assay type: cell-based; conditions: PC-3, inhibition of AKT Ser473 phosphorylation, 1 to 2 h incubation, MSD sandwich immunoassay, absolute IC50, mean of two experiments
pIC50: −log10 of the molar value.
Label 0 if pIC50 falls below 7; label 1 in every other case.

O=c1cc(N2CCOCC2)nc(Cc2nc3cc(F)c(F)cc3o2)[nH]1    0
O=c1cc(N2CCOCC2)nc(Cc2nc3ccc(F)cc3[nH]2)[nH]1    1

Query block: // inclusive: pIC50 at least 7? input: O=c1cc(N2CCOCC2)nc(Cc2nc3c(Cl)cc(C(F)(F)F)cc3[nH]2)[nH]1
Result block: 0

---

In this section we review reported IC50 values for a set of compounds.
tested on: AKT protein phosphorylated on serine 473 (P-AKT-S473) in PC3 human prostate carcinoma cells; assay: pAKT expression in PC3 cells measured by MSD Multi-spot Biomarker Detection (Test B); type: cell-based; details: PC-3, inhibition of AKT Ser473 phosphorylation, 1 to 2 h incubation, MSD sandwich immunoassay, absolute IC50, mean of two experiments
Give just the number in nM; leave the unit off.

Use these answered entries as a reference point.
O=c1cc(N2CCOCC2)nc(Cc2nc3cc(F)cc(F)c3[nH]2)[nH]1    144
O=c1cc(N2CCOCC2)nc(Cc2nc3ccc(Br)cc3[nH]2)[nH]1    85
O=c1cc(N2CCOCC2)nc(Cc2nc3cccc(F)c3o2)[nH]1    88

Now for a further compound.
Query block: Dear colleague, I am looking for the recorded IC50 of the following compound: O=c1cc(N2CCOCC2)nc(Cc2nc3ccccc3n2Cc2ccccc2)[nH]1
Result block: 105
